Target: T1, mfNPR1-mFc:hBNP complex (monkey; human, UniProt P16860 103-134)
T1 construct: Receptor-Fc pre-complexed with 10-fold hBNP
Assay: SPR Biacore, mAb captured by anti-human Fc, 37C
property: Kd (nM)
One number for each entry, in nM.

binder | scaleUnit | Kd
mAb25491 (antibody, human IgG4, V domains shown) VH: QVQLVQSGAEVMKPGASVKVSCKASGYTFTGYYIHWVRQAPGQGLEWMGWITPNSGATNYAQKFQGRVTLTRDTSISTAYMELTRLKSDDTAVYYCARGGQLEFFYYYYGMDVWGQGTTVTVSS VL: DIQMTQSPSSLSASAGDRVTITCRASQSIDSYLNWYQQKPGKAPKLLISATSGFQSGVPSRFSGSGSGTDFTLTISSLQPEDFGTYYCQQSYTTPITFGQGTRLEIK | nM | 1.6

# map each binder to its Kd
1. mAb25508 (antibody, human IgG4, V domains shown) VH: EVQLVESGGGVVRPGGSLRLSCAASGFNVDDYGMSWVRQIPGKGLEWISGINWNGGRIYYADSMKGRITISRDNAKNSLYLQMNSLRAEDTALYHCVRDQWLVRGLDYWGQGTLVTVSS VL: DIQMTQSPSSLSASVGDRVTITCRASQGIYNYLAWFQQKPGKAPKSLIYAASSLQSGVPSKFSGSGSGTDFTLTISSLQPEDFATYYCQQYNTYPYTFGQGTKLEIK
2. mAb22035 (antibody, human IgG4, V domains shown) VH: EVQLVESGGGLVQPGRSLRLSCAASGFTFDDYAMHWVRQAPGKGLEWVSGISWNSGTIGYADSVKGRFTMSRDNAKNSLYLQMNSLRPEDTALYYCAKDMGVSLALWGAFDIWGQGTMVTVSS VL: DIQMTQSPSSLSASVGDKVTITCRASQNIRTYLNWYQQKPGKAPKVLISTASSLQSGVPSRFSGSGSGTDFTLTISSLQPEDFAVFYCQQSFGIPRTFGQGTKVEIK

1. 0.354
2. 0.368
